Biological target: full-length human Tim3 on cells (CHO-K1 stably transfected with plasmid 15312_hTIM3-fl_pUC_Neo) (human, UniProt Q8TDQ0 22-301)
Assay: cell-based or functional assay
Quick reference: IFN-gamma release in MLR at 10 µg/ml antibody, % of rec hu IL-2 (20 EU/ml) = 100% of the listed items.
result.type: IFN-gamma release in MLR at 10 µg/ml antibody, % of rec hu IL-2 (20 EU/ml) = 100% (%)

- binder: "Tim3_0021 (antibody, V domains shown) VH: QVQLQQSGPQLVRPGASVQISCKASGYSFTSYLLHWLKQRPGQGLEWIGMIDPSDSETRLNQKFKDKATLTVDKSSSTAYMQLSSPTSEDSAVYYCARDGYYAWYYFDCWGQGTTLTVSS VL: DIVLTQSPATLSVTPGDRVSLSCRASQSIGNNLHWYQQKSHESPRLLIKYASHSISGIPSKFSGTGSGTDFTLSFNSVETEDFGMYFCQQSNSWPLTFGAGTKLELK"
  reading.unit: "%"
  assay.result: 108
- binder: "Tim3_0016 (antibody, V domains shown) VH: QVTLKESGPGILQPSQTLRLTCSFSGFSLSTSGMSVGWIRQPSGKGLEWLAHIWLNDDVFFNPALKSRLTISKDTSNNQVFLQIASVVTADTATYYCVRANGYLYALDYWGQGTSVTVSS VL: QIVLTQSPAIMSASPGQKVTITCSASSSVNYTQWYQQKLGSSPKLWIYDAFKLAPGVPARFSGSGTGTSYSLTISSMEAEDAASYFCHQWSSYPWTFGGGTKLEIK"
  reading.unit: "%"
  assay.result: 22
- binder: "Tim3_0033 (antibody, V domains shown) VH: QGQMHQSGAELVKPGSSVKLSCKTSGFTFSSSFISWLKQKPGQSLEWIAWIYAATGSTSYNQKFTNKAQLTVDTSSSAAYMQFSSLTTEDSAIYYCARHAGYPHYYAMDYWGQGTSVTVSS VL: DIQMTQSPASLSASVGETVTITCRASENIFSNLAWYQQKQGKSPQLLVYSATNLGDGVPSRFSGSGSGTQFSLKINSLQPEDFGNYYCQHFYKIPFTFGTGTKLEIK"
  reading.unit: "%"
  assay.result: 30
- binder: "Tim3_0038 (antibody, V domains shown) VH: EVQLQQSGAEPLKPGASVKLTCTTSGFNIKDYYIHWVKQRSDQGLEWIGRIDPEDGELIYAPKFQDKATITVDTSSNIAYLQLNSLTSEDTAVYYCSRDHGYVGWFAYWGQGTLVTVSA VL: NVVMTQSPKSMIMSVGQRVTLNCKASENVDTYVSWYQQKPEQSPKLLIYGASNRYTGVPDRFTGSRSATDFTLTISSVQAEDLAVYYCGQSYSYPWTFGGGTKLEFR"
  reading.unit: "%"
  assay.result: 38
